# Assay comment: Fluorescence (λf, quantum yield)
# Type: physicochemical
# Stated conditions: 2 × 10^-4 M in ethanol
Please respond with reported λf for every item in the list.
Value expressed in nm; do not type the unit.

[ask] # get_value(readout='λf', item= CC1=C(C)C(C)=[N+]2C1=Cc1c(C)c(C)c(C)n1[B-]2(F)F [Compound 7z] )
[reply] 552

[ask] # get_value(readout='λf', item= CC1=C2C=C3CCCCC3=[N+]2[B-](F)(F)n2c1cc1c2CCCC1 [Compound 7h] )
[reply] 560

[ask] # get_value(readout='λf', item= CCCC1=C(C)C2=C(C)c3c(C)c(CCC)c(C)n3[B-](F)(F)[N+]2=C1C [Compound 7d] )
[reply] 549

[ask] # get_value(readout='λf', item= CC1=C(C(C)C)C(C)=[N+]2C1=C(C)c1c(C)c(C(C)C)c(C)n1[B-]2(F)F [Compound 7f] )
[reply] 548

[ask] # get_value(readout='λf', item= CC1=C2CCCCC2=[N+]2C1=C(C)c1c(C)c3c(n1[B-]2(F)F)CCCC3 [Compound 7i] )
[reply] 552

[ask] # get_value(readout='λf', item= CCC1=C(CC)C(C)=[N+]2C1=Cc1c(CC)c(CC)c(C)n1[B-]2(F)F [Compound 7y] )
[reply] 554

[ask] # get_value(readout='λf', item= COc1ccc(C2=C3C(C)=CC(C)=[N+]3[B-](F)(F)n3c(C)cc(C)c32)cc1 [Compound 7t] )
[reply] 521

[ask] # get_value(readout='λf', item= CCC1=C(C)C2=C(COC(C)=O)c3c(C)c(CC)c(C)n3[B-](F)(F)[N+]2=C1C [Compound 7r] )
[reply] 575

[ask] # get_value(readout='λf', item= CCC1=C(C)C2=C(C(C)C)c3c(C)c(CC)c(C)n3[B-](F)(F)[N+]2=C1C [Compound 7p] )
[reply] 562

[ask] # get_value(readout='λf', item= CC1=C(c2ccccc2)C(C)=[N+]2C1=C(C)c1c(C)c(-c3ccccc3)c(C)n1[B-]2(F)F [Compound 7l] )
[reply] 559
